Every entry's value here was drawn from ChEMBL document CHEMBL3784956.

test-summary: Initial plasma concentration in Swiss albino mouse at 1 mg/kg, iv by LCMS/MS analysis
Format: ADME, organism-based
Provide the reported C0 of each item.
Answers are plain numbers, in ng/mL.

Illustrative cases are given below, each with its answer.
C[C@]1(COc2ccc(OC(F)(F)F)cc2)Cn2cc([N+](=O)[O-])nc2O1 :: 360
CC1(COc2ccc(OC(F)(F)F)cc2)Cn2cc([N+](=O)[O-])nc2O1 (racemic) :: 880
CC1(COc2ccc(-c3ccc(F)cc3)cc2)Cn2cc([N+](=O)[O-])nc2O1 (racemic) :: 300
O=[N+]([O-])c1cn2c(n1)OC(COc1ccc(OC(F)(F)F)cc1)C2 (stereo not given) :: 610

Now examine the next entry.
For CC1(COc2ccc(-c3ccc(OC(F)(F)F)cc3)cc2)Cn2cc([N+](=O)[O-])nc2O1 (stereo not given) , write its C0.
340
